System: SKMEL28
Assay: relative viability (cell count relative to DMSO-treated control) (fraction of DMSO control); higher = more viable cells / less drug effect
Settings: 48 h; 1 µM
Simple rule here: relative viability less than 0.9 is True, otherwise False.

compound: Cn1cnc2c(F)c(Nc3ccc(Br)cc3Cl)c(C(=O)NOCCO)cc21 [Selumetinib]
group: True

compound: CCCS(=O)(=O)Nc1ccc(F)c(C(=O)c2c[nH]c3ncc(Cl)cc23)c1F [PLX4720]
group: False

compound: CCCS(=O)(=O)Nc1ccc(F)c(C(=O)c2c[nH]c3ncc(-c4ccc(Cl)cc4)cc23)c1F [Vemurafenib]
group: True

###

Recorded apoptotic fraction of cells for the following compounds
Test system: MMACSF
Experiment: apoptotic fraction of cells (caspase-3 NucView488 positive); higher = more apoptosis
Conditions: 24 h; 0.316 µM

smilesRepr: Cn1cnc2c(F)c(Nc3ccc(Br)cc3Cl)c(C(=O)NOCCO)cc21
apoptotic fraction of cells: 0.0526

smilesRepr: CCCS(=O)(=O)Nc1ccc(F)c(C(=O)c2c[nH]c3ncc(-c4ccc(Cl)cc4)cc23)c1F
apoptotic fraction of cells: 0.0459

smilesRepr: CCCS(=O)(=O)Nc1ccc(F)c(C(=O)c2c[nH]c3ncc(Cl)cc23)c1F
apoptotic fraction of cells: 0.0417

smilesRepr: CN(C)CCOc1ccc(-c2nc(-c3ccncc3)c(-c3ccc4c(c3)CC/C4=N\O)[nH]2)cc1
apoptotic fraction of cells: 0.0475

smilesRepr: Cc1ccc(NC(=O)c2cccc(C(C)(C)C#N)c2)cc1Nc1ccc2ncn(C)c(=O)c2c1
apoptotic fraction of cells: 0.0456

###

System: RVH421
Test: apoptotic fraction of cells (caspase-3 NucView488 positive); higher = more apoptosis
Details: 24 h; 0.01 µM

smilesRepr: Cc1ccc(NC(=O)c2cccc(C(C)(C)C#N)c2)cc1Nc1ccc2ncn(C)c(=O)c2c1
target: RVH421
apoptotic fraction of cells: 0.0513

smilesRepr: Cn1cnc2c(F)c(Nc3ccc(Br)cc3Cl)c(C(=O)NOCCO)cc21
target: RVH421
apoptotic fraction of cells: 0.0501

smilesRepr: CCCS(=O)(=O)Nc1ccc(F)c(C(=O)c2c[nH]c3ncc(Cl)cc23)c1F
target: RVH421
apoptotic fraction of cells: 0.0457

smilesRepr: CN(C)CCOc1ccc(-c2nc(-c3ccncc3)c(-c3ccc4c(c3)CC/C4=N\O)[nH]2)cc1
target: RVH421
apoptotic fraction of cells: 0.0588

smilesRepr: CCCS(=O)(=O)Nc1ccc(F)c(C(=O)c2c[nH]c3ncc(-c4ccc(Cl)cc4)cc23)c1F
target: RVH421
apoptotic fraction of cells: 0.0545

###

System: WM115
Assay: relative viability (cell count relative to DMSO-treated control) (fraction of DMSO control); higher = more viable cells / less drug effect
Conditions: 24 h; 0.0316 µM

smilesRepr: CCCS(=O)(=O)Nc1ccc(F)c(C(=O)c2c[nH]c3ncc(-c4ccc(Cl)cc4)cc23)c1F
relative viability: 1.22

smilesRepr: Cn1cnc2c(F)c(Nc3ccc(Br)cc3Cl)c(C(=O)NOCCO)cc21
relative viability: 1.36

smilesRepr: CCCS(=O)(=O)Nc1ccc(F)c(C(=O)c2c[nH]c3ncc(Cl)cc23)c1F
relative viability: 1.49

smilesRepr: CN(C)CCOc1ccc(-c2nc(-c3ccncc3)c(-c3ccc4c(c3)CC/C4=N\O)[nH]2)cc1
relative viability: 1.36

smilesRepr: Cc1ccc(NC(=O)c2cccc(C(C)(C)C#N)c2)cc1Nc1ccc2ncn(C)c(=O)c2c1
relative viability: 1.51

###

Test system: WM115
Assay: relative viability (cell count relative to DMSO-treated control) (fraction of DMSO control); higher = more viable cells / less drug effect
Conditions: 48 h; 0.0316 µM
testReadout: relative viability

compound: Cc1ccc(NC(=O)c2cccc(C(C)(C)C#N)c2)cc1Nc1ccc2ncn(C)c(=O)c2c1 [AZ628]
testReadout: relative viability
testValue: 1.47
--
compound: CCCS(=O)(=O)Nc1ccc(F)c(C(=O)c2c[nH]c3ncc(-c4ccc(Cl)cc4)cc23)c1F [Vemurafenib]
testReadout: relative viability
testValue: 1.24
--
compound: CCCS(=O)(=O)Nc1ccc(F)c(C(=O)c2c[nH]c3ncc(Cl)cc23)c1F [PLX4720]
testReadout: relative viability
testValue: 1.32
--
compound: CN(C)CCOc1ccc(-c2nc(-c3ccncc3)c(-c3ccc4c(c3)CC/C4=N\O)[nH]2)cc1
testReadout: relative viability
testValue: 1.54
--
compound: Cn1cnc2c(F)c(Nc3ccc(Br)cc3Cl)c(C(=O)NOCCO)cc21 [Selumetinib]
testReadout: relative viability
testValue: 1.37

###

Tested on: WM1552C
Assay: apoptotic fraction of cells (caspase-3 NucView488 positive); higher = more apoptosis
Details: 72 h; 3.16 µM

compound: CN(C)CCOc1ccc(-c2nc(-c3ccncc3)c(-c3ccc4c(c3)CC/C4=N\O)[nH]2)cc1
target: WM1552C
apoptotic fraction of cells: 0.113

compound: Cn1cnc2c(F)c(Nc3ccc(Br)cc3Cl)c(C(=O)NOCCO)cc21 [Selumetinib]
target: WM1552C
apoptotic fraction of cells: 0.19

compound: CCCS(=O)(=O)Nc1ccc(F)c(C(=O)c2c[nH]c3ncc(-c4ccc(Cl)cc4)cc23)c1F [Vemurafenib]
target: WM1552C
apoptotic fraction of cells: 0.164

compound: Cc1ccc(NC(=O)c2cccc(C(C)(C)C#N)c2)cc1Nc1ccc2ncn(C)c(=O)c2c1 [AZ628]
target: WM1552C
apoptotic fraction of cells: 0.172

compound: CCCS(=O)(=O)Nc1ccc(F)c(C(=O)c2c[nH]c3ncc(Cl)cc23)c1F [PLX4720]
target: WM1552C
apoptotic fraction of cells: 0.129

###

System: COLO858
Assay: relative viability (cell count relative to DMSO-treated control) (fraction of DMSO control); higher = more viable cells / less drug effect
Conditions: 48 h; 3.16 µM

smilesRepr: CCCS(=O)(=O)Nc1ccc(F)c(C(=O)c2c[nH]c3ncc(Cl)cc23)c1F
relative viability: 0.306

smilesRepr: Cn1cnc2c(F)c(Nc3ccc(Br)cc3Cl)c(C(=O)NOCCO)cc21
relative viability: 0.315

smilesRepr: CN(C)CCOc1ccc(-c2nc(-c3ccncc3)c(-c3ccc4c(c3)CC/C4=N\O)[nH]2)cc1
relative viability: 0.277

smilesRepr: Cc1ccc(NC(=O)c2cccc(C(C)(C)C#N)c2)cc1Nc1ccc2ncn(C)c(=O)c2c1
relative viability: 0.248

smilesRepr: CCCS(=O)(=O)Nc1ccc(F)c(C(=O)c2c[nH]c3ncc(-c4ccc(Cl)cc4)cc23)c1F
relative viability: 0.215

###

Tested on: WM115
Test: relative viability (cell count relative to DMSO-treated control) (fraction of DMSO control); higher = more viable cells / less drug effect
Conditions: 72 h; 0.1 µM
testReadout: relative viability

compound: CCCS(=O)(=O)Nc1ccc(F)c(C(=O)c2c[nH]c3ncc(Cl)cc23)c1F [PLX4720]
testValue: 1.06
//
compound: Cn1cnc2c(F)c(Nc3ccc(Br)cc3Cl)c(C(=O)NOCCO)cc21 [Selumetinib]
testValue: 0.751
//
compound: Cc1ccc(NC(=O)c2cccc(C(C)(C)C#N)c2)cc1Nc1ccc2ncn(C)c(=O)c2c1 [AZ628]
testValue: 0.594
//
compound: CN(C)CCOc1ccc(-c2nc(-c3ccncc3)c(-c3ccc4c(c3)CC/C4=N\O)[nH]2)cc1
testValue: 0.773
//
compound: CCCS(=O)(=O)Nc1ccc(F)c(C(=O)c2c[nH]c3ncc(-c4ccc(Cl)cc4)cc23)c1F [Vemurafenib]
testValue: 1.07

###

Recorded apoptotic fraction of cells for the following compounds
Test system: C32
Assay: apoptotic fraction of cells (caspase-3 NucView488 positive); higher = more apoptosis
Conditions: 48 h; 3.16 µM
testReadout: apoptotic fraction of cells

smilesRepr: Cc1ccc(NC(=O)c2cccc(C(C)(C)C#N)c2)cc1Nc1ccc2ncn(C)c(=O)c2c1
testReadout: apoptotic fraction of cells
testValue: 0.905

smilesRepr: CN(C)CCOc1ccc(-c2nc(-c3ccncc3)c(-c3ccc4c(c3)CC/C4=N\O)[nH]2)cc1
testReadout: apoptotic fraction of cells
testValue: 0.524

smilesRepr: CCCS(=O)(=O)Nc1ccc(F)c(C(=O)c2c[nH]c3ncc(-c4ccc(Cl)cc4)cc23)c1F
testReadout: apoptotic fraction of cells
testValue: 0.862

smilesRepr: Cn1cnc2c(F)c(Nc3ccc(Br)cc3Cl)c(C(=O)NOCCO)cc21
testReadout: apoptotic fraction of cells
testValue: 0.83

smilesRepr: CCCS(=O)(=O)Nc1ccc(F)c(C(=O)c2c[nH]c3ncc(Cl)cc23)c1F
testReadout: apoptotic fraction of cells
testValue: 0.784

###

Tested on: C32
Assay: apoptotic fraction of cells (caspase-3 NucView488 positive); higher = more apoptosis
Conditions: 24 h; 0.316 µM
Recorded apoptotic fraction of cells for the following molecules
testReadout: apoptotic fraction of cells

smilesRepr: Cn1cnc2c(F)c(Nc3ccc(Br)cc3Cl)c(C(=O)NOCCO)cc21
testReadout: apoptotic fraction of cells
testValue: 0.215
//
smilesRepr: CCCS(=O)(=O)Nc1ccc(F)c(C(=O)c2c[nH]c3ncc(Cl)cc23)c1F
testReadout: apoptotic fraction of cells
testValue: 0.174
//
smilesRepr: Cc1ccc(NC(=O)c2cccc(C(C)(C)C#N)c2)cc1Nc1ccc2ncn(C)c(=O)c2c1
testReadout: apoptotic fraction of cells
testValue: 0.28
//
smilesRepr: CCCS(=O)(=O)Nc1ccc(F)c(C(=O)c2c[nH]c3ncc(-c4ccc(Cl)cc4)cc23)c1F
testReadout: apoptotic fraction of cells
testValue: 0.202
//
smilesRepr: CN(C)CCOc1ccc(-c2nc(-c3ccncc3)c(-c3ccc4c(c3)CC/C4=N\O)[nH]2)cc1
testReadout: apoptotic fraction of cells
testValue: 0.225
